Reference source for all entries: PubChem BioAssay (NCI)

- Test system: NCI-H460 lung
Your answer must be one of the following: 1 (active), 0 (inactive)

- smiles entry: "COc1ccc(-c2nnc3n(C)c(=O)c4ccccc4n23)cc1N"
  cat: 1
- smiles entry: "NC(N)=N/N=C/c1c(Cl)cccc1Cl"
  cat: 0
- smiles entry: "CCC[CH2][Sn]([CH2]CCC)([O]C(=O)c1ccc(OC)c(OC)c1OC)[O][Sn]([CH2]CCC)([CH2]CCC)[O]C(=O)c1ccc(OC)c(OC)c1OC"
  cat: 0
- smiles entry: "O=c1oc2ccc(-c3ccc(F)cc3F)cc2c(=O)n1-c1cccc(C(F)(F)F)c1"
  cat: 0

# outcome recorded in this test, key = O=C(Cc1ccc(F)c(Cl)c1)Nc1cc(C2(C(F)(F)F)CC2)nn1CC1CCCCC1 0

// same read-out, input: C[C@@H]1C[C@@H]([C@@H](CC2CC(=O)NC(=O)C2)OC(=O)CC(=O)c2ccccc2)C(=O)[C@@H](C)C1 0
